Reference source: patent US4448788A

experiment: Toxicity (LD50, method of Reed and Muench); conditions: rat, in vivo, sc; subcutaneous, rats observed for 7 days
TEST_READOUT: LD50 at 168 h (mg/kg)
Respond with the bare value in mg/kg.

INPUT: Consider the molecule "CC1(C)[C@@H](OC(=O)/C=C\C(=O)O)CC[C@]2(C)[C@H]3CC=C4[C@@H]5C[C@@](C)(C(=O)O)CC[C@]5(C)CC[C@@]4(C)[C@]3(C)CC[C@@H]12" and give its recorded LD50 at 168 h.
OUTPUT: 98.3

====

test: Toxicity (LD50, method of Reed and Muench); conditions: rat, in vivo, ip; intraperitoneal, rats observed for 7 days
TEST_READOUT: LD50 at 168 h (mg/kg)
Respond with the bare value in mg/kg.

INPUT: Consider the compound "CC1(C)[C@@H](OC(=O)/C=C\C(=O)O)CC[C@]2(C)[C@H]3CC=C4[C@@H]5C[C@@](C)(C(=O)O)CC[C@]5(C)CC[C@@]4(C)[C@]3(C)CC[C@@H]12" and give its recorded LD50 at 168 h.
OUTPUT: 67.8
